This section presents molecules with their documented CC50 values.
test system: HFF cells; assay: Inhibition of cell proliferation (MTT method), HFF cells; type: cell-based, human; settings: concentration which inhibited cell growth by 50% vs control cultures, mean of three assays

Sample records with CC50:
COc1ccc(-c2cn(C[C@H]3C[C@H](n4cc(C)c(=O)[nH]c4=O)ON3C)nn2)cc1 [14e]: 5 µM
CCCc1cn(C[C@H]2C[C@H](n3cc(C)c(=O)[nH]c3=O)ON2C)nn1 [14c]: 5 µM
Cc1cn([C@H]2C[C@H](Cn3cc(-c4ccccc4)nn3)N(C)O2)c(=O)[nH]c1=O [14d]: 5 µM
COc1ccc(-c2cn(C[C@H]3C[C@@H](n4cc(C)c(=O)[nH]c4=O)ON3C)nn2)cc1 [13e]: 5 µM
CCCCCc1ccc(-c2cn(C[C@H]3C[C@@H](n4cc(C)c(=O)[nH]c4=O)ON3C)nn2)cc1 [13g]: 5 µM

Report CC50 for CCCc1cn(C[C@H]2C[C@@H](n3cc(C)c(=O)[nH]c3=O)ON2C)nn1 [13c] please.
5 µM

Report CC50 for Cc1cn([C@H]2C[C@H](Cn3cc(-c4ccc(F)cc4)nn3)N(C)O2)c(=O)[nH]c1=O [14f] please.
5 µM

Find the recorded CC50 belonging to Cc1cn([C@@H]2C[C@H](Cn3cc(-c4ccccc4)nn3)N(C)O2)c(=O)[nH]c1=O [13d] and report it.
5 µM

Give the measured CC50 of CCCCCc1ccc(-c2cn(C[C@H]3C[C@H](n4cc(C)c(=O)[nH]c4=O)ON3C)nn2)cc1 [14g] .
5 µM
